Could you please report measured pIC50 for the items listed next?
Target or test system: NLRP3 inflammasome (Mus musculus, UniProt Q8R4B8)
Sequence (Q8R4B8 whole entry): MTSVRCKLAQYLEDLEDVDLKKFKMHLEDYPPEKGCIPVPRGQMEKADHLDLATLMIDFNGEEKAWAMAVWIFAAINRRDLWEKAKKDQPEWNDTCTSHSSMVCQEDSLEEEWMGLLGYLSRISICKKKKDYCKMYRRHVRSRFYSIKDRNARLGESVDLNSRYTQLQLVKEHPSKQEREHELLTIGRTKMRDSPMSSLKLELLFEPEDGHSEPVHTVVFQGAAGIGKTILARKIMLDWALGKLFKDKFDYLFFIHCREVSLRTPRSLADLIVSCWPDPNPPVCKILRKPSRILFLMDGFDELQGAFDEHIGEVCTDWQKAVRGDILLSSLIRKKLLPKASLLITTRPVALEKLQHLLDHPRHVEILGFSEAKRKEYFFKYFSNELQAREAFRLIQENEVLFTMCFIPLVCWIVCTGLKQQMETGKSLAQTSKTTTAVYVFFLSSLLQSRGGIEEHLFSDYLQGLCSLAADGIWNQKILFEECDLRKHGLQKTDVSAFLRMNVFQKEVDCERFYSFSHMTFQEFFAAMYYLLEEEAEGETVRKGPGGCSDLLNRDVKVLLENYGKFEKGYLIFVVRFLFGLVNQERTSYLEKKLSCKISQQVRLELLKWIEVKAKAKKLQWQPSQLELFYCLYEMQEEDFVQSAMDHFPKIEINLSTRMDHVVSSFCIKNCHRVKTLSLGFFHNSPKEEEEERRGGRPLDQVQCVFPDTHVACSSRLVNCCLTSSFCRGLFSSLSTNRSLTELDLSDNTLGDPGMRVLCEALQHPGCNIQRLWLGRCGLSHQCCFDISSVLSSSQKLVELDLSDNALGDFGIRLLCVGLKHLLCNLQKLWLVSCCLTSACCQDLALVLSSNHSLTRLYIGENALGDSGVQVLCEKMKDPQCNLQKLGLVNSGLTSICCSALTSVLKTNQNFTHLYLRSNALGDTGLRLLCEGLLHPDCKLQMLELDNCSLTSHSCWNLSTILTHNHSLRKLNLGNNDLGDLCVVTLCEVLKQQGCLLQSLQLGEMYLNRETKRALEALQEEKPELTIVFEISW
Measurement protocol: Inhibition of IL-1β release, NLRP3 inflammasome activation assay in BMDM
Assay type: cell-based
Recorded conditions: inhibition of IL-1β release, class symbols, read-out: Avg. IL-1β IC50 Murine BMDM
pIC50: −log10 of the molar value.

Worked cases, answers included:
{"Entry smiles": "CC(C)(O)c1coc(S(=O)(=O)NC(=O)Nc2cc(C(F)(F)F)ccc2C(F)(F)F)c1", "pIC50": "> 6.00"}
{"Entry smiles": "COc1cccc(S(=O)(=O)NC(=O)Nc2c3c(cc4c2CCC4)CCC3)c1", "pIC50": "> 7.00"}
{"Entry smiles": "CC(=O)c1ccc(S(=O)(=O)NC(=O)Nc2c3c(cc4c2CCC4)CCC3)cc1", "pIC50": "> 7.00"}
{"Entry smiles": "CC(C)n1ccc(S(=O)(=O)NC(=O)Nc2c(C3CC3)cc(Cl)cc2C2CC2)n1", "pIC50": "> 6.00"}

We next turn to a different compound, shown below.
Please report the measured pIC50 for `CC(C)n1ccc(S(=O)(=O)NC(=O)Nc2c(C3CC3)cc(Cl)c3c2CCC3)n1`
> 6.00
